Recorded values, source PubChem BioAssay (NCI).

- Test system: TK-10 renal
- Protocol notes: NCI-60 one-dose screen, 48 h
- Study conditions: 10 µM unless noted
The panel holds about 83,000 compounds, 20% with a hit somewhere; the sample as a whole holds those more often. Calls of active or inactive are those of the source. How the source made its calls: active means growth percent below 10; inactive means the rest.
Outcome codes: active, inactive

>  <Molecule>
O=S(O)c1cc(Cl)cc(Cl)c1OCc1ccccc1

>  <Assigned category>
inactive

$$$$
>  <Molecule>
Cn1c(=O)[nH]c(=O)c2nc3c(nc21)-c1ccccc1C3=O

>  <Assigned category>
inactive

$$$$
>  <Molecule>
Cc1cn(C)cn1

>  <Assigned category>
inactive

$$$$
>  <Molecule>
COC12C=C/C(=C(/C(=O)OCCSc3ccnn3C)C(=O)CCCCCCCCC3(OC)C=C/C(=C(/C(=O)OCCSc4ccnn4C)C(=O)CCCCCCCC1)O3)O2

>  <Assigned category>
inactive

$$$$
>  <Molecule>
Cc1cccc(N2C(=O)/C(=C/C(Cl)=C/c3ccc([N+](=O)[O-])cc3)SC2=S)c1C

>  <Assigned category>
active

$$$$
>  <Molecule>
c1ccc(-c2c(-c3ccccc3)[n+](Cc3ccc4ccccc4c3)cn2Cc2ccc3ccccc3c2)cc1

>  <Assigned category>
active

$$$$
>  <Molecule>
CC1(C)CC[C@]2(CO)CC[C@]3(C)[C@](O)([C@H](O)C[C@@H]4[C@@]5(C)CCCNC(C)(C)[C@@H]5CC[C@]43C)[C@@H]2C1

>  <Assigned category>
inactive

$$$$
>  <Molecule>
Nc1ccc(-c2ccncc2)cc1NC(=O)N1CCCC1

>  <Assigned category>
inactive

$$$$
>  <Molecule>
C1CCC(N2CN3c4nonc4N4CN(C5CCCCC5)CN5c6nonc6N(C2)C3C45)CC1 (centres undefined)

>  <Assigned category>
inactive

$$$$

* * *

- System: 786-0 renal
- Protocol notes: NCI-60 one-dose screen, 48 h
- Study conditions: 10 µM unless noted
Compounds without any hit were thinned out: in the full panel of roughly 83,000, 20% have a hit. Calls of active or inactive are those of the source. How the source made its calls: active means growth percent below 10; inactive means the rest.
Classes used: 1 = active, 0 = inactive

>  <Compound>
CCCCO[C@@H]1C=C2[C@H]3CC(C)(C)C(=O)C[C@]3(C(=O)O[C@@H]3O[C@H](CO[C@@H]4O[C@H](CO)[C@@H](OC5OC(C)C(O)C(O)C5O)[C@H](O)[C@H]4O)[C@@H](O)[C@H](O)[C@H]3O)CC[C@@]2(C)[C@]2(C)CC[C@H]3C(C)(C)C(=O)CC[C@]3(C)[C@@H]12 (stereo not given in full)

>  <Tested target>
786-0 renal

>  <Assigned category>
0

$$$$
>  <Compound>
COc1ccc(-c2cc(-c3cc(OC)ccc3OC)nc(SCC(C)=O)c2C#N)cc1

>  <Tested target>
786-0 renal

>  <Assigned category>
0

$$$$
>  <Compound>
Cc1cn(C)cn1

>  <Tested target>
786-0 renal

>  <Assigned category>
0

$$$$
>  <Compound>
CCCCCc1ccc(S(=O)(=O)Nc2cc(-c3csc(NC(C)=O)n3)ccc2N2CCN(C)CC2)cc1

>  <Tested target>
786-0 renal

>  <Assigned category>
0

$$$$
>  <Compound>
COc1ccc(C(O)c2cc3c(N)c(C(=O)Nc4cccc5ccccc45)sc3nc2C)cc1 (stereo not given)

>  <Tested target>
786-0 renal

>  <Assigned category>
0

$$$$
>  <Compound>
N#Cc1c(-c2ccc(Br)cc2)nc2c(N=Nc3ccc(S(N)(=O)=O)cc3)c(N)nn2c1N

>  <Tested target>
786-0 renal

>  <Assigned category>
0

$$$$
>  <Compound>
COc1ccc(/C=C/C(c2cc(OC)c(OC)c(OC)c2)n2cncn2)cc1O (stereo not given)

>  <Tested target>
786-0 renal

>  <Assigned category>
0

$$$$
>  <Compound>
N#Cc1nn(-c2cc(=O)[nH]c3ccc(Br)cc23)c(N)c1C#N

>  <Tested target>
786-0 renal

>  <Assigned category>
0

$$$$
>  <Compound>
CC[C@H](Nc1nc(N)nc(C)c1C#N)c1nc2cccc(CN(C)c3ncc(C(=O)NO)cn3)c2c(=O)n1-c1ccccc1

>  <Tested target>
786-0 renal

>  <Assigned category>
0

$$$$
>  <Compound>
COc1ccc(C2[C@@H](Cl)C(=O)N2c2cc(OC)c(OC)c(OC)c2)cc1Cl (stereo not given in full)

>  <Tested target>
786-0 renal

>  <Assigned category>
1

$$$$
>  <Compound>
O=S(=O)(Nc1cc(F)cc(F)c1)c1ccc(-c2cnc(C3CC3)o2)cc1

>  <Tested target>
786-0 renal

>  <Assigned category>
0

$$$$
>  <Compound>
Oc1nc(NCc2ccccc2)sc1/C=C1\C=Nc2ncccc21

>  <Tested target>
786-0 renal

>  <Assigned category>
0

$$$$
>  <Compound>
Cc1nn(-c2ccc([N+](=O)[O-])cc2)c2ncnc(N/N=C/c3ccccc3O)c12

>  <Tested target>
786-0 renal

>  <Assigned category>
1

$$$$
>  <Compound>
COc1ccc(C/C(C)=C(\c2ccc(O)cc2)c2ccc(OCCN3CCCCC3)cc2)cc1

>  <Tested target>
786-0 renal

>  <Assigned category>
0

$$$$
>  <Compound>
NC(=O)c1ccccc1OCC(=O)Nc1ccc(Cl)c(Cl)c1

>  <Tested target>
786-0 renal

>  <Assigned category>
0

$$$$
>  <Compound>
CCOC(=O)NC(=S)n1oc(=O)c2ccccc21

>  <Tested target>
786-0 renal

>  <Assigned category>
0

$$$$
>  <Compound>
CC1(C)CC[C@]23CC[C@]4(C)[C@H](CC[C@@H]5[C@@]6(C)C/C(=C/O)C(=O)C(C)(C)[C@@H]6CC[C@]54C)[C@H]2[C@H]1OC3

>  <Tested target>
786-0 renal

>  <Assigned category>
0

$$$$
>  <Compound>
C=C1SC(=Nc2ccccc2Cl)N(C(=O)c2sc3ccccc3c2Cl)C1(C)C

>  <Tested target>
786-0 renal

>  <Assigned category>
0

$$$$
>  <Compound>
CN(C)c1ccc(/C=N\NC(=O)c2ccc3nc(-c4ccc(Cl)cc4)[nH]c3c2)cc1

>  <Tested target>
786-0 renal

>  <Assigned category>
0

$$$$
>  <Compound>
Cc1cc(NCCCNc2ccnc3cc(Cl)ccc23)nc(Nc2ccc(C(=O)N3CCCCC3)cc2)n1

>  <Tested target>
786-0 renal

>  <Assigned category>
1

$$$$
